target: recombinant F-protein (respiratory syncytial virus (RSV)) (UniProt P03420); assay: SPR Biacore T-200, antibody captured on protein A chip, F-protein as analyte
Sequence (P03420 whole entry): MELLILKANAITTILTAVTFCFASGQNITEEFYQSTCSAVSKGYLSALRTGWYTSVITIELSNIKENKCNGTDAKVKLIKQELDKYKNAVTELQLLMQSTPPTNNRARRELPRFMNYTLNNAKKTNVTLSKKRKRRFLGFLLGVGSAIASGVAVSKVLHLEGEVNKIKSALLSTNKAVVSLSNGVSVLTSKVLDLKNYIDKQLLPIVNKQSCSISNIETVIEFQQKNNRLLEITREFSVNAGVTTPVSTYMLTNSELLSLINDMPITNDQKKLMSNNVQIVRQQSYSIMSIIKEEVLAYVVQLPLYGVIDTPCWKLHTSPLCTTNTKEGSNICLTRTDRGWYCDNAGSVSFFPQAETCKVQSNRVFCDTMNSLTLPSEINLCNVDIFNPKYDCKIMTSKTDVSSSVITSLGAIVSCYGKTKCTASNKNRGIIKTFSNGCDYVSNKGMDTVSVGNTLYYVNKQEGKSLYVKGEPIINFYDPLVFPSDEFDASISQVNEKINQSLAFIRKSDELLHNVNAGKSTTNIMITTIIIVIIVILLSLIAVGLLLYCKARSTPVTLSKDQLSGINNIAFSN
Could you please report measured pKd for the items listed next?
The meaning of pKd here: minus log10 of the concentration in molar units.

Please fill in: pKd reported for 3H8 (antibody, V domains shown) VH: EVQLVESGGGLVKPGGSLRLSCAGSGFTFSSYTMHWVRQAPGKGLEWVSSITGGSSYVDYSASVKGRFTISRDNAQSSLYLQMNSLRAEDTAVYYCARDDYGSGSYSNWFDPWGRGTTVTVSS VL: QPVLTQPLSASGTPGQRVTISCTGSSSNIGAGYDVHWYQQLPGRAPKLLIFANTNRPSGVPDRFSGSKSGTSASLAITGLQAEDEADYYCQSYDRSLSHVFGTGTKVTVLG = 11.40

Please fill in: pKd reported for #12m (antibody, V domains shown) VH: EVQLVESGGGLVKPGGSLRLSCAGSGFAFSSYTMHWVRQAPGKGLEWVSSITGGSSYLDYAHSVKGRFTISRDNGQNSLFLQMNSLRTEDTAVYYCARDDYGSGSYSNYFDPWGQGTLVTVSS VL: QSVLTQPPSVSGAPGQRVTISCTGSSSNIGAGYDVHWYQQVPGTAPKLLIFGSTNRPSGVPDRFSGSKSGASASLAITGLQTEDEADYYCQSYDRSLSHVFGTGTKVTVLG = 11.17

Please fill in: pKd reported for 4G1 (antibody, V domains shown) VH: QVTLKESGGGLVKPGGSLRLSCAASGFRLSSYGMNWVRQAPGKGLEWVSSISASSSFINYADSVRDRFTISRDNAKNSLYLQMNSLRAEDTAVYYCARDDYGSGSYSNWFDPWGQGTLVTVSS VL: QSVLTQPPSVSGAPGQRVTISCTGNSSNLGAGYDVHWYQQLPGRAPKLLIFANTNRPSGVPDRFSGSKSGASASLAITSLQADDEADYYCQSYDRSLSHVFGTGTKVTVLG = 10.47

Please fill in: pKd reported for 2H1 (antibody, V domains shown) VH: QVTLKESGGGVVQSGRSLRLSCAASGFTFSSYTMHWVRQAPGKGLEWVSSITGGSSYVDYSASVKGRFTISRDNAQSSLYLQMNSLRAEDTAVYYCARDDYGSGSYSNWFDPWGQGTLVTVSS VL: QSVLTQPPSVSGAPGQRVTISCTGSSSNIGAGYDVHWYQQLPGRAPKLLIYANTNRPSGVADRFSGSKSGASASLAITGLQADDEADYYCQSYDRSLSHVFGTGTKVTVLG = 11.42
